Assay: qHTS Assay for Lipid Storage Modulators: COS7 Assay against Probe and Analogs
Details: COS7 lipid droplet area, BODIPY imaging, 18 h; cells loaded with 400 µM oleic acid
Inconclusive results are not listed.
Readout: max response (%)
Give a bare numeral; the unit % is implied.

Study these solved cases before continuing.
{"Compound": "O=C(NC1CCCc2c1cnn2-c1ccc(F)cc1F)c1cnccn1 (stereo unspecified)", "Endpoint Unit": "%", "max response": -14.9}
{"Compound": "CCOc1ccc(CCNC(=O)c2ccc3[nH]ccc3c2)cc1OCC", "Endpoint Unit": "%", "max response": 20.9}
{"Compound": "O=C(NCCc1ccc2c(c1)OCO2)c1cc2sccc2n1Cc1ccccc1", "Endpoint Unit": "%", "max response": 19.6}
{"Compound": "CCOc1ccc(CCNC(=O)c2cnon2)cc1OCC", "Endpoint Unit": "%", "max response": 8.92}
{"Compound": "CCOC(=O)C1CCN(C(=O)C(C)(C)NC(=O)Nc2ccc(N)cc2)CC1", "Endpoint Unit": "%", "max response": -5.67}

Record `Cc1ccc(NC(=O)c2ccc(CN3CCN(C)CC3)cc2)cc1Nc1nc(-c2cccnc2)cs1` . Reported max response: -0.902

Origin of measurements: PubChem BioAssay AID652283
